From: patent US8227406B2

test system: Eschericia coli ATCC25922; experiment: Radial diffusion assay (RDA), E. coli; assay type: cell-based, Escherichia coli; set-up: unit not given here; details: E. coli; peptide 50 μM; mean of 3
OUTCOME_MEASURE: Mean (RDA antimicrobial activity)
# print the numeric value only

Entry under test: PKRKKKGGKNGKNRRNRKKKNWWW [PKR-21-WWW] . Its Mean (RDA antimicrobial activity) was 7.55

Entry under test: PKR-21: growth factor derived peptide, untagged parent of PKR21WWW; sequence not printed (PKRKKKGGKNGKNRRNRKKKN; listed as Homo sapiens) . Its Mean (RDA antimicrobial activity) was 1.23

Entry under test: GKRKKKGKGLGKKRDPCLRKYKWWW [GKR-22-WWW] . Its Mean (RDA antimicrobial activity) was 6.57

Entry under test: GKR-22: growth factor derived peptide, untagged parent of GKR22WWW; sequence not printed (GKRKKKGKGLGKKRDPCLRKYK; listed as Homo sapiens) . Its Mean (RDA antimicrobial activity) was 3.65

---

Provide the reported Mean (RDA antimicrobial activity) of each item.
system: Staphylococcus aureus ATCC29213; test: Radial diffusion assay (RDA), S. aureus; format: cell-based; parameters: unit not given here; conditions: S. aureus; peptide 50 μM; mean of 3
# print the numeric value only

Entry under test: PKRKKKGGKNGKNRRNRKKKNWWW [PKR-21-WWW] . Its Mean (RDA antimicrobial activity) was 4.53

Entry under test: GKRKKKGKGLGKKRDPCLRKYKWWW [GKR-22-WWW] . Its Mean (RDA antimicrobial activity) was 7.55

Entry under test: GKR-22: growth factor derived peptide, untagged parent of GKR22WWW; sequence not printed (GKRKKKGKGLGKKRDPCLRKYK; listed as Homo sapiens) . Its Mean (RDA antimicrobial activity) was 3.03

Entry under test: PKR-21: growth factor derived peptide, untagged parent of PKR21WWW; sequence not printed (PKRKKKGGKNGKNRRNRKKKN; listed as Homo sapiens) . Its Mean (RDA antimicrobial activity) was 1.30

---

system: Eschericia coli ATCC25922; assay: Radial diffusion assay (RDA), E. coli; format: cell-based, Escherichia coli; set-up: unit not given here; settings: E. coli; peptide 1 μM; mean of 3
Provide the reported Mean (RDA antimicrobial activity) of each item.

Entry under test: PKR-21: growth factor derived peptide, untagged parent of PKR21WWW; sequence not printed (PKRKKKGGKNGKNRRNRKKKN; listed as Homo sapiens) . Its Mean (RDA antimicrobial activity) was 0.85

Entry under test: GKRKKKGKGLGKKRDPCLRKYKWWW [GKR-22-WWW] . Its Mean (RDA antimicrobial activity) was 2.84

Entry under test: GKR-22: growth factor derived peptide, untagged parent of GKR22WWW; sequence not printed (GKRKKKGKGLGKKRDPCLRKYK; listed as Homo sapiens) . Its Mean (RDA antimicrobial activity) was 0.00

Entry under test: PKRKKKGGKNGKNRRNRKKKNWWW [PKR-21-WWW] . Its Mean (RDA antimicrobial activity) was 3.23

---

System: Candida albicans ATCC90028
Assay: Radial diffusion assay (RDA), C. albicans
Assay type: cell-based
Parameters: unit not given here
Settings: Table 1c; peptide 10 μM
Protocol: Peptides. Peptides were from Sigma-Genosys, generated by a peptide synthesis platform (PEPscreen®, Custom Peptide Libraries, SigmaGenosys). Yield was ˜1-6 mg, and peptide length 20 amino acids. MALDI-ToF Mass Spectrometry was perfomed on these peptides. Average Crude Purity of 20mers was ˜60%. Peptides were supplied lyophilized and in a 96-well tube rack. Prior to biological testing the PEPscreen peptides were diluted in dH2O (5 mM stock), and stored at −20 C. […]
OUTCOME_MEASURE: RDA Mean, C. albicans

Entry under test: PKR-21: growth factor derived peptide, untagged parent of PKR21WWW; sequence not printed (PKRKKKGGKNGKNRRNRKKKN; listed as Homo sapiens) . Its RDA Mean, C. albicans was 0.46

Entry under test: GKRKKKGKGLGKKRDPCLRKYKWWW [GKR-22-WWW] . Its RDA Mean, C. albicans was 0.66

Entry under test: GKR-22: growth factor derived peptide, untagged parent of GKR22WWW; sequence not printed (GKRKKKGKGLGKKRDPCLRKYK; listed as Homo sapiens) . Its RDA Mean, C. albicans was 0.00

Entry under test: PKRKKKGGKNGKNRRNRKKKNWWW [PKR-21-WWW] . Its RDA Mean, C. albicans was 3.11
